# Tested on: 994946-033-R-J1-PDC complex spheroid viability
# METHOD NOTES: Anticancer human tumor 994946-033-R-J1-PDC patient-derived melanoma cell line growth inhibition [POLQ]; active = viability on the fitted dose curve at most 10% of control; inactive = the rest
# STATED CONDITIONS: second compound 0.0316 µM; first compound 0.316 µM
API: response.call in 1 for active, 0 for inactive

Examples from the recorded data:
MOLECULE: COc1cccc2c1C(=O)c1c(O)c3c(c(O)c1C2=O)CC(O)(C(=O)CO)CC3OC1CC(N)C(O)C(C)O1 (stereo not drawn) + Cc1cccc(N(C)C(=O)C2C(O)CCN2c2nc(C)cc(C(F)(F)F)c2C#N)c1
QUALITATIVE LABEL: 1

MOLECULE: O=C(Nc1ccc(O)c(NS(=O)(=O)c2ccc(F)cc2)c1)c1ccc(-c2ccccc2)cc1 + Nc1ccc(C#CCN(C(=O)Cc2ncc(C(F)(F)F)cc2C(F)(F)F)c2ccc(F)cc2)nn1
QUALITATIVE LABEL: 0

MOLECULE: CCc1cc2c(N3CCc4c(cc(Cn5ccnc5)cc4-c4cn(C)nc4C(F)(F)F)C3=O)ccnc2c(OC)n1 + Nc1ccc(C#CCN(C(=O)Cc2ncc(C(F)(F)F)cc2C(F)(F)F)c2ccc(F)cc2)nn1
QUALITATIVE LABEL: 0

MOLECULE: CCCS(=O)(=O)Nc1ccc(F)c(C(=O)c2c[nH]c3ncc(-c4ccc(Cl)cc4)cc23)c1F + Cc1cccc(N(C)C(=O)C2C(O)CCN2c2nc(C)cc(C(F)(F)F)c2C#N)c1
QUALITATIVE LABEL: 0

MOLECULE: CC(C)n1c(=O)n(C)c2cnc3cc(F)c(-c4ccc(OCCCN5CCCCC5)nc4)cc3c21 + COC1C(OC(N)=O)C(O)C(Oc2ccc3c(O)c(NC(=O)c4ccc(O)c(CC=C(C)C)c4)c(=O)oc3c2C)OC1(C)C
QUALITATIVE LABEL: 0

GET /call?item= CCc1c2c(nc3ccc(O)cc13)-c1cc3c(c(=O)n1C2)COC(=O)[C@]3(O)CC + Cc1cccc(N(C)C(=O)C2C(O)CCN2c2nc(C)cc(C(F)(F)F)c2C#N)c1 returns the recorded outcome of this test.
1

// query: COc1cccc2c1C(=O)c1c(O)c3c(c(O)c1C2=O)CC(O)(C(=O)CO)CC3OC1CC(N)C(O)C(C)O1 (stereo not drawn) + COC1C(OC(N)=O)C(O)C(Oc2ccc3c(O)c(NC(=O)c4ccc(O)c(CC=C(C)C)c4)c(=O)oc3c2C)OC1(C)C
1

// query: C=CCn1c(=O)c2cnc(Nc3ccc(N4CCN(C)CC4)cc3)nc2n1-c1cccc(C(C)(C)O)n1 + COC1C(OC(N)=O)C(O)C(Oc2ccc3c(O)c(NC(=O)c4ccc(O)c(CC=C(C)C)c4)c(=O)oc3c2C)OC1(C)C
0

----------
# System: 994946-033-R-J1-PDC complex spheroid viability
# METHOD NOTES: Anticancer human tumor 994946-033-R-J1-PDC cell line growth inhibition [POLQ];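 also: spheroids exposed to drugs for 7 days; 100% = DMSO vehicle treated spheroids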
# STATED CONDITIONS: second compound 1 µM; first compound 0.0316 µM; stronger effect = lower value
QUANTITY KIND: viability, T/C (%)
# value in %; strip the unit string

COMPOUND: COc1cccc2c1C(=O)c1c(O)c3c(c(O)c1C2=O)CC(O)(C(=O)CO)CC3OC1CC(N)C(O)C(C)O1 (stereo not drawn) + Cc1cccc(N(C)C(=O)C2C(O)CCN2c2nc(C)cc(C(F)(F)F)c2C#N)c1
SYSTEM TESTED: 994946-033-R-J1-PDC complex spheroid viability
OBSERVED VALUE: 47.9
--
COMPOUND: C=CC(=O)N1CCN(c2nc(=O)n(-c3c(C)ccnc3C(C)C)c3nc(-c4c(O)cccc4F)c(F)cc23)C(C)C1 (stereo not drawn) + COC1C(OC(N)=O)C(O)C(Oc2ccc3c(O)c(NC(=O)c4ccc(O)c(CC=C(C)C)c4)c(=O)oc3c2C)OC1(C)C
SYSTEM TESTED: 994946-033-R-J1-PDC complex spheroid viability
OBSERVED VALUE: 112

Consider the compound shown here: Nc1ccn(C2OC(CO)C(O)C2(F)F)c(=O)n1 (stereo not drawn) + Nc1ccc(C#CCN(C(=O)Cc2ncc(C(F)(F)F)cc2C(F)(F)F)c2ccc(F)cc2)nn1 What is its recorded viability, T/C?
49.5
